# ASSAY SYSTEM: full-length human RORγt (Homo sapiens (Human))
# Sequence (P51449 other isoform, or with tags, fused parts or gaps): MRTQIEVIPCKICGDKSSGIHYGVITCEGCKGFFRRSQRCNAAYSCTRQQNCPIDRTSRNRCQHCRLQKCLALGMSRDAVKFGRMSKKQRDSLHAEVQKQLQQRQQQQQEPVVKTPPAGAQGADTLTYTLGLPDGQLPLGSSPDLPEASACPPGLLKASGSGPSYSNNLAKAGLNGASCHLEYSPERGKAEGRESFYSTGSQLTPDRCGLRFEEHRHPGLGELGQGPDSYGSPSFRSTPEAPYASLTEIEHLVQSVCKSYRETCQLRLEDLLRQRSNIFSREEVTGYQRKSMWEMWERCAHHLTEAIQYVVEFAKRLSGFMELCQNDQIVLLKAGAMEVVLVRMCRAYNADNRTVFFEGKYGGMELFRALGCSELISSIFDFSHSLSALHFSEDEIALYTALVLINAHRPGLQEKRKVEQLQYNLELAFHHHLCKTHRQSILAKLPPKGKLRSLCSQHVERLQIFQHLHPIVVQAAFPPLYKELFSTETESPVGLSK
# PROCEDURE TEXT: RORγt (full-length human) reporter assay, Conditions B or C
# Assay type: cell-based
# RUN PARAMETERS: Conditions B or C; marked *: footnote not given
RECORDED METRIC: RORγt (FL) Reporter Assay B or C, % inhibition (value marked *)

Field: example entries. Status: answers known.
[
  {
    "COMPOUND": "C[C@H](Nc1cc(C(F)F)c(-c2sc(C(=O)N[C@H]3C[C@@H]3O)nc2C(=O)N2CCC[C@@H]2C)cn1)C(F)(F)F (single isomer, unassigned) [Example 158]",
    "ASSAY SYSTEM": "full-length human RORγt (Homo sapiens (Human))",
    "RECORDED VALUE": "96* %"
  },
  {
    "COMPOUND": "CC[C@H](Nc1cc(C(F)F)c(-c2sc(C(=O)NCC(C)(C)O)nc2C(=O)N2C3CCC2CC3)cn1)C1CC1 (stereo in doubt)",
    "ASSAY SYSTEM": "full-length human RORγt (Homo sapiens (Human))",
    "RECORDED VALUE": "114* %"
  },
  {
    "COMPOUND": "CC[C@H](Nc1cc(C(F)F)c(-c2sc(C(=O)N[C@H]3COC[C@@H]3O)nc2C(=O)N2C3CCC2CC3)cn1)C(F)(F)F",
    "ASSAY SYSTEM": "full-length human RORγt (Homo sapiens (Human))",
    "RECORDED VALUE": "99* %"
  },
  {
    "COMPOUND": "C[C@H]1CC(F)(F)CN1C(=O)c1nc(C(=O)NCC(C)(C)O)sc1-c1cnc(NC2(C(F)(F)F)CCC2)cc1C(F)(F)F",
    "ASSAY SYSTEM": "full-length human RORγt (Homo sapiens (Human))",
    "RECORDED VALUE": "108* %"
  },
  {
    "COMPOUND": "CC[C@H](Nc1cc(C(F)F)c(-c2sc(C(=O)N[C@H]3C[C@H]3O)nc2C(=O)N2CCC[C@@H]2C)cn1)C(F)(F)F (relative stereo)",
    "ASSAY SYSTEM": "full-length human RORγt (Homo sapiens (Human))",
    "RECORDED VALUE": "104* %"
  }
]

Continue with the compound presented below.
Per the record, "CCC(C)(C)Nc1cc(C(F)F)c(-c2sc(C(=O)NCC(C)(C)O)nc2C(=O)N2CCC[C@@H]2C)cn1" has RORγt (FL) Reporter Assay B or C, % inhibition (value marked *) of 119* %
